Reference source for all entries: the supplement of paper PMC10567573

Each record here notes measured protein stability index.
B1: INTS3 (parent)
chain: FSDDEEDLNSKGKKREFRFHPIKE

Variants of: B1
test-method-notes: protein stability index of a GFP-peptide fusion (GPS, HEK-293T) (PSI 1-6); higher = more stable;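 also: lentivirally expressed fusions sorted by FACS into six bins by GFP to DsRed ratio, PSI derived from sequencing read proportions per bin multiplied by bin number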
experimental-parameters: c terminus: a fixed tail appended
Give the figure by itself; no unit, no explanation.

[
  {
    "mutation-name": "R18V",
    "protein stability index": 4.56
  },
  {
    "mutation-name": "K13N",
    "protein stability index": 3.2
  },
  {
    "mutation-name": "N9E",
    "protein stability index": 3.6
  }
]

// query Look up protein stability index: `K23L`
// result 2.95

// query Look up protein stability index: `R18F`
// result 3.27

// query Look up protein stability index: `R15K`
// result 3.89

// query Look up protein stability index: `G12T`
// result 2.44

// query Look up protein stability index: `L8P`
// result 3.4

// query Look up protein stability index: `E24Q`
// result 2.35

// query Look up protein stability index: `E24K`
// result 2.14

// query Look up protein stability index: `K14D`
// result 3.73
